Experiment: in vivo
Details: Swiss Webster, mouse, ip, plasma concentration
measuredAttribute: concentration at 30 min (ng/mL)
Write down the numeric answer in ng/mL and omit the unit.

Exercise: Supply measured concentration at 30 min of CCCSc1ccc2nc(NC(=O)OC)[nH]c2c1 [Albendazole] in your reply.
Solution: 292

---

Conditions: drug with Motor1; 20 mM sodium phosphate buffer (pH=7.4); phase diagram
hey, just use 1 if measured Solubility enhancement is less than 1000 fold, otherwise -1

Consider the following illustrative entries.
COC(=O)[C@H](c1ccccc1Cl)N1CCc2sccc2C1    -1
N[C@@H](Cc1ccc(N(CCCl)CCCl)cc1)C(=O)O    1
CC(=O)O[C@H]1C(=O)[C@@]2(C)[C@H]([C@H](OC(=O)c3ccccc3)[C@]3(O)C[C@H](OC(=O)[C@H](O)[C@@H](NC(=O)c4ccccc4)c4ccccc4)C(C)=C1C3(C)C)[C@]1(OC(C)=O)CO[C@@H]1C[C@@H]2O    -1
C(=C\c1ccccc1)/CN1CCN(C(c2ccccc2)c2ccccc2)CC1    1

Read the next record carefully.
Exercise: Strictly below 1000 fold: is that where Solubility enhancement of CCCSc1ccc2nc(NC(=O)OC)[nH]c2c1 sits?
Solution: 1

---

Assay: Pharmacokinetic study of Motor1.ABZ, IP route (plasma, HPLC)
Conditions: Swiss Webster, mouse, in vivo, ip, plasma concentration; t = 8 h; individual mice
measuredAttribute: concentration at 8 h (ng/mL)
Write down the numeric answer in ng/mL and omit the unit.

Exercise: Supply measured concentration at 8 h of CCC[S+]([O-])c1ccc2[nH]c(NC(=O)OC)nc2c1 (stereo not shown) [ABZSO, albendazole sulfoxide] in your reply.
Solution: 183

---

Test: in vivo
Settings: Swiss Webster, mouse, ip, plasma concentration
measuredAttribute: concentration at 2 h
Remember to quote the unit after the number.

Exercise: Supply measured concentration at 2 h of CCCSc1ccc2nc(NC(=O)OC)[nH]c2c1 in your reply.
Solution: 122 ng/mL

---

Experiment: Pharmacokinetic study of Motor1.ABZ, IV route (plasma, HPLC)
Conditions: Swiss Webster, mouse, in vivo, iv, plasma concentration; t = 8 h; individual mice
measuredAttribute: concentration at 8 h (ng/mL)
Write down the numeric answer in ng/mL and omit the unit.

Exercise: Supply measured concentration at 8 h of CCC[S+]([O-])c1ccc2[nH]c(NC(=O)OC)nc2c1 (stereo not shown) [ABZSO, albendazole sulfoxide] in your reply.
Solution: 330

---

Entries and their measured Solubility enhancement follow.
Assay: Phase-solubility of pharmaceutical agents with Motor2 (1H NMR)
Details: drug solubilized with Motor2; 20 mM sodium phosphate buffer (pH=7.4); phase diagram
Write down the numeric answer in fold and omit the unit.

Solved cases below.
CC[C@@]1(O)C(=O)OCc2c1cc1n(c2=O)Cc2cc3ccccc3nc2-1    580
Cc1c(Cl)cccc1Nc1ccccc1C(=O)O    37
COc1ccc2c(c1)c(CC(=O)O)c(C)n2C(=O)c1ccc(Cl)cc1    56

Exercise: Supply measured Solubility enhancement of CCCSc1ccc2nc(NC(=O)OC)[nH]c2c1 in your reply.
Solution: 149

---

Assay: in vivo
Conditions: Swiss Webster, mouse, ip, plasma concentration
measuredAttribute: concentration at 15 min (µg/mL)
Write down the numeric answer in µg/mL and omit the unit.

Exercise: Supply measured concentration at 15 min of CCCSc1ccc2nc(NC(=O)OC)[nH]c2c1 [Albendazole] in your reply.
Solution: 0.38
